- target-desc: recombinant human enteropeptidase (Homo sapiens (Human))
- Sequence (P98073 whole entry): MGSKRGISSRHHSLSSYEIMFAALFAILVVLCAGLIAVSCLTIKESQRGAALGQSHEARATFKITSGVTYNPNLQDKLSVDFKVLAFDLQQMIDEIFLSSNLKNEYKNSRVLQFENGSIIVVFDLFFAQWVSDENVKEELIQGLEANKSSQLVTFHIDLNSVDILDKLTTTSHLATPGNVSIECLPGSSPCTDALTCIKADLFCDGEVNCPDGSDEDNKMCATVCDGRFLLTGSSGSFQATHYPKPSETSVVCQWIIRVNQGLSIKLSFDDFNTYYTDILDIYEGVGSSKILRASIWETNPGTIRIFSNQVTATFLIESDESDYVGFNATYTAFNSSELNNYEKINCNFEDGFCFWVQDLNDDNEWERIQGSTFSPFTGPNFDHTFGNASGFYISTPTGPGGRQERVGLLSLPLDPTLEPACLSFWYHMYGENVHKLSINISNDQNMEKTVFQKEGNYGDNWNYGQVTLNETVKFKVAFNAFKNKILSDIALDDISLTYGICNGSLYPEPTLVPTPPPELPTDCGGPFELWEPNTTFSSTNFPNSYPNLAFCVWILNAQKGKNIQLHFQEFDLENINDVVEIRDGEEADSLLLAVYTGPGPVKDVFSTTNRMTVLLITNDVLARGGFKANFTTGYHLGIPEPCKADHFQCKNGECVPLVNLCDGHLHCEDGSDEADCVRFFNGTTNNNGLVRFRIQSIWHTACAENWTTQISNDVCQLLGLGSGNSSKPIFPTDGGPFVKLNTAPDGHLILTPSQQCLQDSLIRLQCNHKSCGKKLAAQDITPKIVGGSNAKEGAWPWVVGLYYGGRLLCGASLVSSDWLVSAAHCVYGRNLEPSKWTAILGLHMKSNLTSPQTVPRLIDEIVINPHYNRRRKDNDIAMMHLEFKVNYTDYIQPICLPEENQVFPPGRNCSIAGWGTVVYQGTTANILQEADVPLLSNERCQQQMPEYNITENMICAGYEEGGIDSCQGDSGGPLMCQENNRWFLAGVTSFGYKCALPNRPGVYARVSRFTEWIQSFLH
- protocol-details: Measurement of enteropeptidase inhibitory activity
- test-context: substrate Gly-Asp-Asp-Asp-Asp-Lys-β-Naphtylamide, Tris-HCl pH 8.0, Dixon plot
Counter-ions that a name gives are not always drawn.
readout-label: Ki (nM)
Numbers only, in nM.

Example entries begin here.
CC(C)(Cc1ccc(C(=O)Oc2ccc(C(=N)N)cc2F)s1)C(=O)NCc1nnn[nH]1 [Compound 65]	0.53
CC(C)(Cc1ccc(C(=O)Oc2ccc(C(=N)N)cc2F)s1)C(=O)N1CCC[C@H]1C(=O)O [Compound 8]	0.87
CC(C)(Cc1ccc(C(=O)Oc2ccc(C(=N)N)cc2F)s1)C(=O)N1CCC[C@H]1CC(=O)O [Compound 41]	1.58
CCC(CC)(Cc1ccc(C(=O)Oc2ccc(C(=N)N)cc2F)s1)C(=O)N[C@@H]1COC(=O)C1 [Compound 34]	2.56
CCC(CC)(Cc1ccc(C(=O)Oc2ccc(C(=N)N)cc2F)s1)C(=O)O [Compound 18, trifluoroacetic acid salt]	1.24
CC(C)(Cc1ccc(C(=O)Oc2ccc(C(=N)N)cc2F)s1)C(=O)N[C@H](C(=O)O)c1ccccc1 [Compound 37]	0.96

Form field Ki for item CC(C)(Cc1ccc(C(=O)Oc2ccc(C(=N)N)cc2F)s1)C(=O)Nc1ccc(C(=O)O)c(C(=O)O)c1 [Compound 68] on recombinant human enteropeptidase (Homo sapiens (Human)): 0.24

Where these numbers come from: patent US9024044B2
